Assignment: determine reported tumor/tissue cancer/ serum for the given compounds.
Test system: nitrosoamine-induced pancreatic cancer
Test: laser irradiation to the extirpated organ (excited fluorescent spectrum, N2-PLS measurement), tumor to tissue ratio
Format: in vivo, Golden hamsters
Conditions: i.v. 25 mg/kg bodyweight, organs extirpated at 24 hours after administration
Experimental: Golden hamsters (males, 5 per group, bodyweight approximately 150 g) were implanted subcutaneously tumor cells of the nitrosoamine-induced pancreatic cancer. […] At 24 hours after administration, the organs including the tumor were extirpated, irradiated with N2-pulsed laser (N2, 337 nm, 2 ns, 400 - 1000 nm), and measured of excited fluorescent spectrum. […]
I'd appreciate a reply containing only the number, no unit.

The recorded tumor/tissue cancer/ serum for CC1=C(CCC(=O)NC(CC(=O)O)C(=O)O)C2=NC1=Cc1c(C)c(C(C)OCCC(C)CCCC(C)C)c3[n]1[Ga][n]1c(c(C)c(CCC(=O)NC(CC(=O)O)C(=O)O)c1=C2)=CC1=NC(=C3)C(C)=C1C(C)OCCC(C)CCCC(C)C (centres unmarked) [(19) C10(H2Citro)-Ga-DP-diAsp] is 3.50

The recorded tumor/tissue cancer/ serum for CCCCCOC(C)C1=C(C)C2=Cc3c(C(C)OCCCCC)c(C)c4[n]3[Ga][n]3c(c(C)c(CCC(=O)NC(CC(=O)O)C(=O)O)c3=CC3=NC(=C4)C(C)=C3CCC(=O)NC(CC(=O)O)C(=O)O)=CC1=N2 (centres unmarked) [(9) C5-Ga-DP-diAsp] is 0.89

Source of measurements: patent EP0350948B1
